# key: entry, value: IC50
- target: CDK2/CycA (Homo sapiens)
- Construct: purchased Proqinase
- experiment summary: CDK2 Enzymatic Activity Assay (Lance Kinase Activity Assay, FRET)
- Type: biochemical
- condition label: Table 5B, class symbols per IC50 [nM] ranges of b581; read-out: CDK2: Selectivity of CDK7 inhibition over CDK2 inhibition

{"columns": ["molecule", "IC50"],
 "data": [
  ["CC(C)c1cnn2c(NCc3ccccc3-n3cccn3)nc(CN3CC(N4CCCC4=O)C3)nc12", "> 2500 nM"],
  ["CC(C)c1cnn2c(NCc3ccccc3-n3cccn3)nc(O[C@@H]3CCNC3)nc12", "< 50 nM"],
  ["CC(C)c1cnn2c(NCc3ccccc3-n3cccn3)nc(NCCCN)nc12", "> 2500 nM"]
]}

Recall the reported IC50 of CC(C)c1cnn2c(NCc3ccccc3-n3cncn3)nc([S+]([O-])C3CCNCC3)nc12 (centres unmarked) on CDK2/CycA (Homo sapiens) and write it down.
50 to 500 nM

Provide CDK2/CycA (Homo sapiens) IC50 reading for CC(C)c1cnn2c(NCc3ccccc3-n3cccn3)nc(C(=O)NCCCCN)nc12 .
> 2500 nM

====

We begin with a simple list: items and their reported IC50.
- target: CDK7/CycH/Mat1 (Homo sapiens)
- experiment summary: CDK7 Enzymatic Activity Assay (Lance Kinase Activity Assay, FRET)
- Format: biochemical
- condition label: CDK7/CycH/Mat1, 25 μM ATP final; class ranges; read-out: CDK7: IC50 [nM] for CDK7 inhibition

Solved entries:
{"columns": ["compound", "IC50"],
 "data": [
  ["CC(C)c1cnn2c(NCc3cccc4c3OCCCO4)nc(O[C@@H]3CCCNC3)nc12", "10 to 25 nM"],
  ["COc1ccccc1[C@H](C)Nc1nc(N[C@@H]2CCCNC2)nc2c(C(C)C)cnn12", "5 to 10 nM"]
]}

Please indicate IC50 recorded for CC(C)c1cnn2c(NCc3cc(F)ccc3-n3cccn3)nc(O[C@@H]3CCCNC3)nc12
< 5 nM

Output IC50 of CC(C)c1cnn2c(NC(C)c3ccccc3-n3cccn3)nc(O[C@@H]3CCCNC3)nc12 (stereo partly shown)
< 5 nM

====

- target: CDK7/CycH/Mat1 (Homo sapiens)
- experiment summary: CDK7 Enzymatic Activity Assay (Lance Kinase Activity Assay, FRET)
- Format: biochemical
- condition label: CDK7/CycH/Mat1, 25 μM ATP final; class ranges; read-out: CDK7: IC50 [nM] for CDK7 inhibition
// values below are reported IC50

Some entries whose results are on file:
{"columns": ["compound", "readout label", "result"],
 "data": [
  ["CC(C)c1cnn2c(NCc3ccccc3-c3ccccc3)nc([S+]([O-])C3CCNCC3)nc12 (stereo not drawn)", "IC50", "10 to 25 nM"],
  ["CC(C)c1cnn2c(NCc3c(F)cccc3F)nc(OC3CCN(C)CC3)nc12", "IC50", "5 to 10 nM"],
  ["CC(C)c1cnn2c(NCc3ccccc3-n3cccn3)nc(N3CCCC34CCNC4)nc12 (stereo not drawn)", "IC50", "5 to 10 nM"]
]}

Identify measured IC50 corresponding to CC(C)c1cnn2c(NCc3ccccc3-n3cccn3)nc(N3CC(N4CCCC4=O)C3)nc12
> 25 nM

====

- target: CDK7/CycH/Mat1 (Homo sapiens, UniProt P50613)
- Sequence (P50613 whole entry): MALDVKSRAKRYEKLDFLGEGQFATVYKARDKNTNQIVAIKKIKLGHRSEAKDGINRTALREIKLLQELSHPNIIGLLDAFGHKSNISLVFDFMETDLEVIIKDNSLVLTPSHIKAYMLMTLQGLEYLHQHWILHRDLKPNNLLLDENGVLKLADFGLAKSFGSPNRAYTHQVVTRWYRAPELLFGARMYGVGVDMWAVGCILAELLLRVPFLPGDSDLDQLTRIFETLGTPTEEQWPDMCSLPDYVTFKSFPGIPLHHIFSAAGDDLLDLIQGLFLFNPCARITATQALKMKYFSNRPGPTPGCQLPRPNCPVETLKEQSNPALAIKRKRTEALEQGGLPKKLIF
- experiment summary: CDK7 Enzymatic Activity Assay (Lance Kinase Activity Assay, FRET)
- Type: biochemical
- condition label: CDK7/CycH/Mat1, 25 μM ATP final; class ranges; read-out: CDK7: IC50 [nM] for CDK7 inhibition
readout label: IC50

For orientation, consider the following solved cases.
{"columns": ["molecule", "IC50"],
 "data": [
  ["CC(C)Oc1ccccc1CNc1nc(OC2CCN(C)CC2)nc2c(C(C)C)cnn12 [(VII-66)]", "< 5 nM"],
  ["CC(C)c1cnn2c(NCc3ccccc3-n3cccn3)nc(S[C@@H]3CCCNC3)nc12 [(X-8)]", "< 5 nM"],
  ["CC(C)c1cnn2c(NCc3cccc4[nH]ncc34)nc(O[C@@H]3CCCNC3)nc12 [(VII-36)]", "< 5 nM"]
]}

Next molecule, please.
Name the recorded IC50 of the item CC(C)c1cnn2c(NCc3ccccc3[S+]([O-])C3CCCC3)nc(O[C@@H]3CCCNC3)nc12 (stereo partly shown) [(VII-153)] in your answer.
10 to 25 nM

====

- target: CDK9/Cyclin T1 (Homo sapiens)
- Sequence (P50750 whole entry): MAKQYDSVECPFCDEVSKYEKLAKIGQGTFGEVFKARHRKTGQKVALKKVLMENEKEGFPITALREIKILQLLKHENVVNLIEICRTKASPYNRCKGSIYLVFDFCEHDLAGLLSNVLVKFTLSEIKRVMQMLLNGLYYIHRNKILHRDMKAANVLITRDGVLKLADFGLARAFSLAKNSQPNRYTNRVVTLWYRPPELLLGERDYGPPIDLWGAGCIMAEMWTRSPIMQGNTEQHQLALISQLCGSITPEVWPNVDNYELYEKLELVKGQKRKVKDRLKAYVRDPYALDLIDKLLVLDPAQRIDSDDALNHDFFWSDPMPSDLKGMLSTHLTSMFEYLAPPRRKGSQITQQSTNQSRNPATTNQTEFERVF
- Sequence (O60563 whole entry partner): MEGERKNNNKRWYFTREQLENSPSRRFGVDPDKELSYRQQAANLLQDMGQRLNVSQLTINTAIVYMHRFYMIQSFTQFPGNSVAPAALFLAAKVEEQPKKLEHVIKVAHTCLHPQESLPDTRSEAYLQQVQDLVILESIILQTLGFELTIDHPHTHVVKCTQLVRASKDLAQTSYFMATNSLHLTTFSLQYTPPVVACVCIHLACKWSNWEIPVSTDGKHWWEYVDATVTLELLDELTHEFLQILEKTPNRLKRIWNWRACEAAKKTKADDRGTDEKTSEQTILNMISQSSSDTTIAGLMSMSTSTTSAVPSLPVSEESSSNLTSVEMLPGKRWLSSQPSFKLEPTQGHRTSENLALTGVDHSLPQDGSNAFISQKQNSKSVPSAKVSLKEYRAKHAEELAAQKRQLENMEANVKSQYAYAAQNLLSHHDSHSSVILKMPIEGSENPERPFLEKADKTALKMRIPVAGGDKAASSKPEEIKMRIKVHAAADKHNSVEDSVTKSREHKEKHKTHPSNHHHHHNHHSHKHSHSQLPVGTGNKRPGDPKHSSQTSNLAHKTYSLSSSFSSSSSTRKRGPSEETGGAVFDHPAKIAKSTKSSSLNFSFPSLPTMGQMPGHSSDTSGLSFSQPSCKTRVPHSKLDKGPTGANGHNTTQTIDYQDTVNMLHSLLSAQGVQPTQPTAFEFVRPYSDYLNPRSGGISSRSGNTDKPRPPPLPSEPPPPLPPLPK
- experiment summary: CDK9 Enzymatic Activity Assay (Lance Kinase Activity Assay, FRET)
- Assay type: biochemical
- condition label: Table 5B, class symbols per IC50 [nM] ranges of b581; read-out: CDK9: Selectivity of CDK7 inhibition over CDK9 inhibition
Here the recorded IC50 is given for each entry.

// fetch IC50; item: COC(=O)C(CN)Nc1nc(NCc2ccccc2-n2cccn2)n2ncc(C(C)C)c2n1 (centres unmarked) ; system: CDK9/Cyclin T1 (Homo sapiens)
> 2500 nM

Report IC50 under test system CDK9/Cyclin T1 (Homo sapiens) for CC(C)c1cnn2c(NCc3ccccc3N3CCC3=O)nc(O[C@@H]3CCCNC3)nc12 .
> 2500 nM

Find IC50 for CC(C)c1cnn2c(NCc3ccccc3C3CC3)nc(O[C@@H]3CCCNC3)nc12 (stereo in doubt) on CDK9/Cyclin T1 (Homo sapiens) and write it down.
500 to 2500 nM

State IC50 (CDK9/Cyclin T1 (Homo sapiens)) of COc1ccccc1[C@H](C)Nc1nc(OC2CCN(C)CC2)nc2c(C(C)C)cnn12 .
> 2500 nM

# lookup: CDK9/Cyclin T1 (Homo sapiens) IC50, key = CC(C)c1cnn2c(NCc3ccccc3-c3ccccc3)nc(OC3CCN(C)CC3)nc12
> 2500 nM

Given CCNC(=O)Oc1ccccc1CNc1nc(O[C@@H]2CCCNC2)nc2c(C(C)C)cnn12 , report its IC50 on CDK9/Cyclin T1 (Homo sapiens).
> 2500 nM

// fetch IC50 for CC(C)c1cnn2c(NCc3ccccc3-n3cccn3)nc(N3CCC34CCNC4)nc12 (centres unmarked) ; system: CDK9/Cyclin T1 (Homo sapiens)
> 2500 nM

State measured IC50 of the compound CC(C)c1cnn2c(NCc3ccccc3-n3ccnc3)nc(O[C@@H]3CCCNC3)nc12 with CDK9/Cyclin T1 (Homo sapiens).
50 to 500 nM

====

- target: CDK7/CycH/Mat1 (Homo sapiens, UniProt P50613)
- experiment summary: CDK7 Enzymatic Activity Assay (Lance Kinase Activity Assay, FRET)
- Type: biochemical
- condition label: CDK7/CycH/Mat1, 25 μM ATP final; class ranges; read-out: CDK7: IC50 [nM] for CDK7 inhibition
readout label: IC50

Examples with their reported IC50 follow.
{"columns": ["molecule", "target", "IC50"],
 "data": [
  ["CC(C)c1cnn2c(NCc3ccccc3-c3ccccc3)nc(OC3CCN(C)CC3)nc12", "CDK7/CycH/Mat1 (Homo sapiens, UniProt P50613)", "< 5 nM"],
  ["CNC(=O)c1ccccc1CNc1nc(O[C@@H]2CCCNC2)nc2c(C(C)C)cnn12", "CDK7/CycH/Mat1 (Homo sapiens, UniProt P50613)", "< 5 nM"],
  ["CC(C)NS(=O)(=O)c1ccccc1CNc1nc(O[C@@H]2CCCNC2)nc2c(C(C)C)cnn12", "CDK7/CycH/Mat1 (Homo sapiens, UniProt P50613)", "> 25 nM"]
]}

Tell me IC50 reported for CC(C)c1cnn2c(NCc3ccccc3-n3cncn3)nc([S+]([O-])C3CCNCC3)nc12 (centres unmarked)
< 5 nM

Output IC50 of CC(C)c1cnn2c(NCc3ccccc3-n3cccn3)nc(C(=O)NCC3CNC3)nc12
< 5 nM

Please report the measured IC50 for CC(C)c1cnn2c(NCc3ccccc3-c3cccs3)nc(O[C@@H]3CCNC3)nc12
< 5 nM

// fetch IC50 given entry CC(C)c1cnn2c(NCc3ccccc3-n3cccn3)nc(N3CCC(N(C)C)CC3)nc12
< 5 nM

Query IC50 for CC(C)c1cnn2c(NCc3ccccc3-n3cccn3)nc(CNCCCN3CCOCC3)nc12
> 25 nM

====

Below: a set of entries, each annotated with reported IC50.
- target: CDK7/CycH/Mat1 (Homo sapiens, UniProt P50613)
- experiment summary: CDK7 Enzymatic Activity Assay (Lance Kinase Activity Assay, FRET)
- Assay type: biochemical
- condition label: CDK7/CycH/Mat1, 25 μM ATP final; class ranges; read-out: CDK7: IC50 [nM] for CDK7 inhibition

# example entries with known answers
{"columns": ["compound", "readout label", "result"],
 "data": [
  ["CC(C)c1cnn2c(NCc3ccccc3-n3cccn3)nc(N3CCC4(CNC4)C3)nc12", "IC50", "< 5 nM"],
  ["CC(C)c1cnn2c(NCc3ccccc3Oc3ccccc3)nc(OC3CCN(C)CC3)nc12", "IC50", "< 5 nM"],
  ["CC(C)c1cnn2c(NCc3ccccc3-n3cccn3)nc(OC3CCNCC3)nc12", "IC50", "< 5 nM"],
  ["CC(C)c1cnn2c(NCc3ccccc3-n3cccn3)nc(OC3COC4(CCNCC4)C3)nc12 (centres unmarked) [(VII-05)]", "IC50", "< 5 nM"],
  ["CC(C)c1cnn2c(NCc3ccccc3C(N)=O)nc(O[C@@H]3CCCNC3)nc12", "IC50", "< 5 nM"],
  ["CC(C)c1cnn2c(NCc3ccccc3-n3cccn3)nc(C(=O)N3CCNCC3)nc12", "IC50", "> 25 nM"],
  ["CC(C)c1cnn2c(NCc3ccccc3F)nc(OC3CCN(C)CC3)nc12", "IC50", "5 to 10 nM"]
]}

Give a short answer stating reported IC50 for CC(C)c1cnn2c(NCc3ccccc3-n3cccn3)nc(N3CCC34CNC4)nc12 .
5 to 10 nM
